The reported measurements were obtained from the supplement of paper PMC9170038.

- System: MS2 coat protein
- testName: apparent KD of MS2 coat protein; designed switch direction (-1 OFF switch, 1 ON switch): 1; higher = weaker reporter binding
- conditionSummary: Eterna round: R95; input ligand: microRNA oligo, concentration not stated
measuredMetric: apparent KD of MS2 coat protein (nM)
// units = nM; emit number, no label

Qu. Item UACAAUCUAUCUGAGGAUAUCAUGAUUCUAACAUGAGGAUCACCCAUGUGCAGGAAAACUGCAUAUGAGAAGGCAGAUAGAUUGU [salish99_ss2_r3_072] (puzzle: Same State 2) with MS2 coat protein - apparent KD of MS2 coat protein?
Ans. 33.3

Qu. What about AAGUUACUAUCUCAGGAUAUCAUGUCAAAGACAUGAGGAUCACCCAUGUACCAGGAAACUGGUUAUGAGAAGGGAGAUAGUAACG [Mat - Same State 2 - Mod - D53] (puzzle: Same State 2) ?
Ans. 149

Qu. What about GGAGGACAUGAGGAUCACCCAUGUAGAUGGGCGCUAGGAUAUGCGAGAGGGUAGAGAGAAGCAGAAGGAGUGGAAA [JR_SS1_Sub040] (puzzle: Same State 1) ?
Ans. 197

Qu. What about AUAAAACAUGAGGAUCACCCAUGUCAACAAAGUUGAGGAUAUGGGCAAAUAAAAUAAGAACCAGAAGGCGAAUAAU [salish99_ss1_r3_033] (puzzle: Same State 1) ?
Ans. 193

Qu. What about GGUCCAGCCUGAGCUGGACAAAAGCAUGUACAUGAGGAUCACCCAUGUUCAUGUACAAGCUUUUUGCUCGUCUUAGA [salish99_208a_r3_068] (puzzle: Sensor for hsa-mir-208a) ?
Ans. 15.5

* * *

Record form. Attribute: apparent KD of MS2 coat protein. Fill in for each entry.
- Tested on: MS2 coat protein
- testName: apparent KD of MS2 coat protein; designed switch direction (-1 OFF switch, 1 ON switch): -1; higher = weaker reporter binding
- conditionSummary: input ligand: none
// units = nM; emit number, no label

Qu. Please report the recorded apparent KD of MS2 coat protein for AUAAUGUGAGGAUAUCAGUCGACUAGCGAUAGCUAGUCGACUGAGAAGGCACAUGAGGAUCACCCAUGUGUUUC [E4/15-A4] (Eterna round: R97, puzzle: Exclusion 4) .
Ans. 16.8

Qu. What about UGCCUACAUGAGGAUCACCCAUGUGAGGAUAUCCUGCGAGGAUCAAAAGAUCCUCGUGGGAGAAGGCGCCUGGA [Omei Ex1 B5] (Eterna round: R97, puzzle: Exclusion 1) ?
Ans. 16.2

Qu. What about CCAAGCUUAUUCAUUAACCACAUGAGGAUCACCCAUGUAUAGGCAAUUAUGACUGGGCUCUUUGGUGCUCGUCUUAU [Sensor-V1 #26] (Eterna round: R97, puzzle: Sensor, turn-off variant 1) ?
Ans. 11.7

* * *

Record form. Attribute: apparent KD of K4 kissing-loop reporter. Fill in for each entry.
- Tested on: K4 kissing-loop RNA reporter;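 also: bound reporter read as fluorescence of individual clusters on recovered sequencing chips by microscopy, with normalized cluster intensities fitted with a binding model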
- testName: apparent KD of K4 kissing-loop reporter; higher = weaker reporter binding
- conditionSummary: Eterna round: R107; input ligand: tryptophan 2.4 mM
// units = nM; emit number, no label

Qu. Item CUUCUUCUUCCAAUCUCGGCCAACACGGGACGAGGACCGGUACGGCCGCCACUCGUGCAGUGAUGUUGCACGAUGGUGACGGAGA [Engebiisso] with K4 kissing-loop RNA reporter - apparent KD of K4 kissing-loop reporter?
Ans. 113

Qu. What about CCAUUCUGUUACGAUACCAGUCAAAUAUAUUUGAUCAAUACCCUCGCCGAGUGAUGUUCGGACCCUUGGCAGCGUCUGGGACAGG [ccdfmullin] ?
Ans. 596

Qu. What about UGAUACCAGACUGAUACCAGCCACAGAGUCAAAGACUCUGAUAAAGGAACCAGUGAUGUUGGCCCUUGGCAGCAGUCUGGUAUCU [TheoBX 24 #SwitchBubble #StaticStem] ?
Ans. 156

Qu. What about UAAUCCUAGUGAUAAUAAUCAAGUGGUGGACGAGGACCGGUACGGCCGCCACUCGAAAAUGCAGUGAUGUUGUAAUCCGGAUAAU [Exclusion - Tryptophan A (Freestyle 4)] ?
Ans. 581

Qu. What about CCGCUGCCCUCAGGAUAUUAAGUAUUAGUGAUGUUAGUAAACCGAUGGCGAAAGCCAUCGGUAUGUUGAGAAGGGAGGGUAGCGG [whbob_SS_FMNB__2th199] ?
Ans. 550

Qu. What about AGUUCUUGCCGAAGGAGCGAGGCAGAGUGAUGUUCUGCAGGAGGUCGAAAGACCUCCCUGCCUCAGGUAGGUCGCGGCAUGAACA [Omei KL Arginine B Exc A v1] ?
Ans. 478
